# System: Vero
# assay-name: Inhibitory concentration required to produce cytotoxicity against VERO cells
# Type: functional, cell-based
# measurement-context: Chlorocebus sabaeus
Mark Yes for IC50 under 9 µg/mL, No if at or over.

* CO[C@H]1/C=C/O[C@@]2(C)Oc3c(C)c(O)c4c(O)c(c(/C=N/N5CCN(C)CC5)c(O)c4c3C2=O)NC(=O)/C(C)=C\C=C\[C@H](C)[C@H](O)[C@@H](C)[C@@H](O)[C@@H](C)[C@H](OC(C)=O)[C@@H]1C | No
* CN(C)CCc1c2c(nc3ccccc13)C(=O)c1cccnc1C2=O | Yes
* CN(C)/C=C/c1c2c(nc3ccccc13)C(=O)c1ccccc1C2=O | Yes
* CN(C)CCc1c2c(nc3ccccc13)C(=O)c1ccccc1C2=O | Yes
* CN(C)/C=C/c1c2c(nc3ccccc13)C(=O)c1cccnc1C2=O | Yes
* O=C1c2cccnc2-c2nccc3c2c1nc1ccccc13 | Yes

Recorded values, source ChEMBL document CHEMBL1142818.
